Source listed as patent US20260116991A1.

- STUDY_TARGET: T1, monkey GPC3-His protein (monkey)
- T1 construct: Bought protein; also called monkey GPC3 protein
- ASSAY_TEXT: ELISA, monkey GPC3-His coated; antibody 0.011 nM
MEASURED_ENDPOINT: OD450 nm

{"columns": ["BINDER", "MEASURED_NUMBER"],
 "data": [
  ["hAb007LH1L1c (antibody, human IgG1, V domains shown, Humanized F3.81.19, H1+L1c) VH: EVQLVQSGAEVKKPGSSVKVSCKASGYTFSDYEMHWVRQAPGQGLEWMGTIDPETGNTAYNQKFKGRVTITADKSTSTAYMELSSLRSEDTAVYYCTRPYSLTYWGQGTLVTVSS VL: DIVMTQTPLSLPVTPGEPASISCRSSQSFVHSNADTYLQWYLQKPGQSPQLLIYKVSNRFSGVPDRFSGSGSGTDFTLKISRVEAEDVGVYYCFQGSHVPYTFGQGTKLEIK", 0.103],
  ["hAb006LH3L1d (antibody, human IgG1, V domains shown, Humanized F3.38.7, H3+L1d) VH: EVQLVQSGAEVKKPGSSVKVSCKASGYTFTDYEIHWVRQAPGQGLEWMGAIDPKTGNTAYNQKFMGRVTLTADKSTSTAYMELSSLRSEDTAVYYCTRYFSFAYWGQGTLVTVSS VL: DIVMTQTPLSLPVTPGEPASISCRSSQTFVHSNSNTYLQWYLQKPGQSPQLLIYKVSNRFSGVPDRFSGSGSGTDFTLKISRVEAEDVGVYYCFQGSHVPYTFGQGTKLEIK", 0.308],
  ["hAb007LH1L1e (antibody, human IgG1, V domains shown, Humanized F3.81.19, H1+L1e) VH: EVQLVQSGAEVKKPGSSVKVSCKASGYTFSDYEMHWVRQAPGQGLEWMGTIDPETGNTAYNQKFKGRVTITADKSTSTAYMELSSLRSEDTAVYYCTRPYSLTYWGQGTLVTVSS VL: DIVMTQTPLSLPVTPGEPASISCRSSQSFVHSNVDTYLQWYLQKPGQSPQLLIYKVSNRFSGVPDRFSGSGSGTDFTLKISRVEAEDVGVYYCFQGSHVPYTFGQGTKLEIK", 0.14],
  ["hAb007LH1L1d (antibody, human IgG1, V domains shown, Humanized F3.81.19, H1+L1d) VH: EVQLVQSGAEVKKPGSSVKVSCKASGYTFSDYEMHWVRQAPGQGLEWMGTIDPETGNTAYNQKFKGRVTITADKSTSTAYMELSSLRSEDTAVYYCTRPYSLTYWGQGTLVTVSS VL: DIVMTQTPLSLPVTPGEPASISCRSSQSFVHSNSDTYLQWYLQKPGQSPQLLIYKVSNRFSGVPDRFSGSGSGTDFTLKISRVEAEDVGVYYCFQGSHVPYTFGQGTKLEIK", 0.09],
  ["hAb006LH3L1e (antibody, human IgG1, V domains shown, Humanized F3.38.7, H3+L1e) VH: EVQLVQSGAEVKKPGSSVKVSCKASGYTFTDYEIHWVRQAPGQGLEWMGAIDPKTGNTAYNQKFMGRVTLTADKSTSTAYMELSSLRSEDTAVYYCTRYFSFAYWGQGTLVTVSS VL: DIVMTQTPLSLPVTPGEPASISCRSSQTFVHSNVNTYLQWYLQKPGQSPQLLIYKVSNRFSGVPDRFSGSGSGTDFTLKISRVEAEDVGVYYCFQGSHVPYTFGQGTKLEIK", 0.24],
  ["hAb006LH3L1c (antibody, human IgG1, V domains shown, Humanized F3.38.7, H3+L1c) VH: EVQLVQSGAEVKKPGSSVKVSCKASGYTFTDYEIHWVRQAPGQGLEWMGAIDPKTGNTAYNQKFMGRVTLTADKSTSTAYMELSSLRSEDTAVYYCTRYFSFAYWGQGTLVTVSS VL: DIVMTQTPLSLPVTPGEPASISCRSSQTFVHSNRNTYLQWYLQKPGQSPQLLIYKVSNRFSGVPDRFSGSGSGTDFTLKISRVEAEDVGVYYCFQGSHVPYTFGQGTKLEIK", 0.332]
]}
